- Tested on: T-47D breast
- EXPERIMENT_SUMMARY: NCI-60 one-dose screen, 48 h (100 = growth as untreated, 0 = no growth, -100 = all killed)
- REPORTED_CONDITIONS: 10 µM unless noted
Compounds without any hit were thinned out: in the full panel of roughly 83,000, 20% have a hit.
Measured growth values are reported for all entries that follow.
Write the answer as a number in %, unit excluded.

Solved entries:
1. Cc1ccc2c(c1)c1nc3cc(C)c(C)cc3nc1n2CCN(C)C: 23.2
2. O=C(O)c1cccc2c1Cc1cc([N+](=O)[O-])ccc1-2: 106
3. COc1ccc2c(c1)c(-c1nc(-c3c[nH]c4ncccc34)cs1)cn2CCN: 25.7
4. Cc1ccc2[nH]cc(-c3nc(-c4cn(C)c5ncccc45)cs3)c2c1: 41.5

stdin: Please list growth recorded for the molecule COc1cccc(-c2nn(-c3ccccc3)cc2-c2ccnc(NCCNS(=O)(=O)c3cccc(F)c3)c2)c1
stdout: 6.41

stdin: Please list growth recorded for the molecule Clc1ccccc1-c1nc(Nc2nc3ccccc3s2)nc(C(Cl)(Cl)Cl)n1
stdout: 38.7

stdin: Please list growth recorded for the molecule COC(=O)[C@]12CC[C@@H](C(C)=O)[C@@H]1[C@H]1CC[C@@H]3[C@@]4(C)C/C(=C/c5cccnc5)C(=O)C(C)(C)[C@@H]4CC[C@@]3(C)[C@]1(C)CC2
stdout: 24.4
